Values compiled from ChEMBL document CHEMBL1136559.

Each entry below carries its reported MIC.
- Tested on: Candida albicans
- measurementProtocol: Antifungal activity against Candida albicans CAF-2
- Format: functional
- conditionDescription: Candida albicans; read-out: MIC
Starred links: 1 amine or outer side, 2 acyl side, 3 side chain; linkers in the order of their positions; H or OH if unused. Positions of bridges follow the written chain, without caps; N, C: chain ends. Non-standard residues stand in square brackets, D forms with d. Residues, ends and D or L forms follow the SMILES beside them. *: point of attachment. pTerphenylCO(4''-OnC5H11) = CCCCCOc1ccc(-c2ccc(-c3ccc(C(=O)*)cc3)cc2)cc1; Pro(cis-4-guanidino) = NC(N)=N[C@@H]1CN[C@H](C(=O)O)C1; X4 = NCCC(=O)c1cc(CC[C@H](N[*:1])C(=O)[*:2])ccc1O; Hyp = O=C(O)[C@@H]1C[C@@H](O)CN1; Orn = NCCC[C@H](N)C(=O)O
observationType: MIC (µg/mL)

1) CCCCCOc1ccc(-c2ccc(-c3ccc(C(=O)N[C@H]4CCCNC(=O)[C@@H]5C[C@H](N=C(N)N)CN5C(=O)[C@H]([C@@H](C)O)NC(=O)[C@H](CCc5ccc(O)c(C(=O)CN)c5)NC(=O)[C@@H]5C[C@@H](O)CN5C(=O)[C@H]([C@@H](C)O)NC4=O)cc3)cc2)cc1 (stereo in doubt; 1) ... 0.2
2) CCCCCOc1ccc(-c2ccc(-c3ccc(C(=O)N[C@H]4CCCNC(=O)[C@@H]5C[C@H](N=C(N)N)CN5C(=O)[C@H]([C@@H](C)O)NC(=O)[C@H](CCc5ccc(O)c(C(=O)CCN)c5)NC(=O)[C@@H]5C[C@@H](O)CN5C(=O)[C@H]([C@@H](C)O)NC4=O)cc3)cc2)cc1 ({pTerphenylCO(4''-OnC5H11)}-[Orn]T[Hyp][X4]T[Pro(cis-4-guanidino)]; lactam 1-C) ... 0.2

====

- measurementProtocol: Plasma clearance for the compound was measured in dog after an iv dose of 1 mg/kg
- Format: ADME, organism-based, Canis lupus familiaris
- Set-up: dose 1 mg/kg, route intravenous
- conditionDescription: read-out: Clp (converted)
Starred links: 1 amine or outer side, 2 acyl side, 3 side chain; linkers in the order of their positions; H or OH if unused. Positions of bridges follow the written chain, without caps; N, C: chain ends. Non-standard residues stand in square brackets, D forms with d. Residues, ends and D or L forms follow the SMILES beside them. *: point of attachment. pTerphenylCO(4''-OnC5H11) = CCCCCOc1ccc(-c2ccc(-c3ccc(C(=O)*)cc3)cc2)cc1; X1 = NCC(=O)Nc1cc(CC[C@H](N[*:1])C(=O)[*:2])ccc1O; X2 = NC(N)=N[C@H]1CC(C(=O)[*:2])N([*:1])C1; Hyp = O=C(O)[C@@H]1C[C@@H](O)CN1; Orn = NCCC[C@H](N)C(=O)O
observationType: clearance (L/h/kg)

1) CCCCCOc1ccc(-c2ccc(-c3ccc(C(=O)N[C@H]4CCCNC(=O)C5C[C@H](N=C(N)N)CN5C(=O)[C@H]([C@@H](C)O)NC(=O)[C@H](CCc5ccc(O)c(NC(=O)CN)c5)NC(=O)[C@@H]5C[C@@H](O)CN5C(=O)[C@H]([C@@H](C)O)NC4=O)cc3)cc2)cc1 (stereo partly specified) ({pTerphenylCO(4''-OnC5H11)}-[Orn]T[Hyp][X1]T[X2]; lactam 1-C) ... 0.03

====

- System: Candida albicans
- measurementProtocol: Antifungal activity against Candida albicans CCH 442
- Assay type: functional
- conditionDescription: Candida albicans; read-out: MIC
Starred links: 1 amine or outer side, 2 acyl side, 3 side chain; linkers in the order of their positions; H or OH if unused. Positions of bridges follow the written chain, without caps; N, C: chain ends. Non-standard residues stand in square brackets, D forms with d. Residues, ends and D or L forms follow the SMILES beside them. *: point of attachment. pTerphenylCO(4''-OnC5H11) = CCCCCOc1ccc(-c2ccc(-c3ccc(C(=O)*)cc3)cc2)cc1; Pro(cis-4-guanidino) = NC(N)=N[C@@H]1CN[C@H](C(=O)O)C1; hTyr(3-COCH2NH2) = NCC(=O)c1cc(CC[C@H](N)C(=O)O)ccc1O; X7 = CCCCCCCCOc1ccc(-c2ccc(-c3ccc(C(=O)*)cc3)cc2)cc1; X3 = CCCCCCCCOc1ccc(N2CCN(c3ccc(C(=O)*)cc3)CC2)cc1; X5 = CCCCCCCCN1CCN(c2ccc(-c3ccc(C(=O)*)cc3)cc2)CC1; X6 = NCC(=O)[C@H]1C[C@@H](C(=O)[*:2])N([*:1])C1; Pro(4S-NH2) = N[C@@H]1CN[C@H](C(=O)O)C1; Hyp = O=C(O)[C@@H]1C[C@@H](O)CN1; Orn = NCCC[C@H](N)C(=O)O
criterion met if MIC is below 0.2 µg/mL. criterion not met if not; exact matches included in criterion not met.

1. CCCCCCCCOc1ccc(N2CCN(c3ccc(C(=O)N[C@H]4CCCNC(=O)[C@@H]5C[C@H](N)CN5C(=O)[C@H]([C@@H](C)O)NC(=O)[C@H](CCc5ccc(O)c(C(=O)CN)c5)NC(=O)[C@@H]5C[C@@H](O)CN5C(=O)[C@H]([C@@H](C)O)NC4=O)cc3)CC2)cc1 (X3-[Orn]T[Hyp][hTyr(3-COCH2NH2)]T[Pro(4S-NH2)]; lactam 1-C) ... criterion met
2. CCCCCCCCN1CCN(c2ccc(-c3ccc(C(=O)N[C@H]4CCCNC(=O)[C@@H]5C[C@H](N=C(N)N)CN5C(=O)[C@H]([C@@H](C)O)NC(=O)[C@H](CCc5ccc(O)c(C(=O)CN)c5)NC(=O)[C@@H]5C[C@@H](O)CN5C(=O)[C@H]([C@@H](C)O)NC4=O)cc3)cc2)CC1 (X5-[Orn]T[Hyp][hTyr(3-COCH2NH2)]T[Pro(cis-4-guanidino)]; lactam 1-C) ... criterion met
3. CCCCCCCCOc1ccc(N2CCN(c3ccc(C(=O)N[C@H]4CCCNC(=O)[C@@H]5C[C@H](N=C(N)N)CN5C(=O)[C@H]([C@@H](C)O)NC(=O)[C@H](CCc5ccc(O)c(C(=O)CN)c5)NC(=O)[C@@H]5C[C@@H](O)CN5C(=O)[C@H]([C@@H](C)O)NC4=O)cc3)CC2)cc1 (X3-[Orn]T[Hyp][hTyr(3-COCH2NH2)]T[Pro(cis-4-guanidino)]; lactam 1-C) ... criterion not met
4. CCCCCCCCOc1ccc(-c2ccc(-c3ccc(C(=O)N[C@H]4CCCNC(=O)[C@@H]5C[C@H](N)CN5C(=O)[C@H]([C@@H](C)O)NC(=O)[C@H](CCc5ccc(O)c(C(=O)CN)c5)NC(=O)[C@@H]5CCCN5C(=O)[C@H]([C@@H](C)O)NC4=O)cc3)cc2)cc1 (X7-[Orn]TP[hTyr(3-COCH2NH2)]T[Pro(4S-NH2)]; lactam 1-C) ... criterion not met
5. CCCCCCCCOc1ccc(N2CCN(c3ccc(C(=O)N[C@H]4CCCNC(=O)[C@@H]5C[C@H](C(=O)CN)CN5C(=O)[C@H]([C@@H](C)O)NC(=O)[C@H](CCc5ccc(O)c(C(=O)CN)c5)NC(=O)[C@@H]5C[C@@H](O)CN5C(=O)[C@H]([C@@H](C)O)NC4=O)cc3)CC2)cc1 (X3-[Orn]T[Hyp][hTyr(3-COCH2NH2)]T[X6]; lactam 1-C) ... criterion not met
6. CCCCCOc1ccc(-c2ccc(-c3ccc(C(=O)N[C@H]4CCCNC(=O)[C@@H]5C[C@H](N)CN5C(=O)[C@H]([C@@H](C)O)NC(=O)[C@H](CCc5ccc(O)c(C(=O)CN)c5)NC(=O)[C@@H]5C[C@@H](O)CN5C(=O)[C@H]([C@@H](C)O)NC4=O)cc3)cc2)cc1 ({pTerphenylCO(4''-OnC5H11)}-[Orn]T[Hyp][hTyr(3-COCH2NH2)]T[Pro(4S-NH2)]; lactam 1-C) ... criterion met
7. CCCCCCCCN1CCN(c2ccc(-c3ccc(C(=O)N[C@H]4CCCNC(=O)[C@@H]5C[C@H](C(=O)CN)CN5C(=O)[C@H]([C@@H](C)O)NC(=O)[C@H](CCc5ccc(O)c(C(=O)CN)c5)NC(=O)[C@@H]5CCCN5C(=O)[C@H]([C@@H](C)O)NC4=O)cc3)cc2)CC1 (X5-[Orn]TP[hTyr(3-COCH2NH2)]T[X6]; lactam 1-C) ... criterion not met

====

- measurementProtocol: Plasma clearance for the compound was measured in rat after an iv dose of 1 mg/kg
- Assay type: ADME, organism-based
- Parameters: dose 1 mg/kg, route intravenous
- conditionDescription: read-out: Clp (converted)
Starred links: 1 amine or outer side, 2 acyl side, 3 side chain; linkers in the order of their positions; H or OH if unused. Positions of bridges follow the written chain, without caps; N, C: chain ends. Non-standard residues stand in square brackets, D forms with d. Residues, ends and D or L forms follow the SMILES beside them. *: point of attachment. pTerphenylCO(4''-OnC5H11) = CCCCCOc1ccc(-c2ccc(-c3ccc(C(=O)*)cc3)cc2)cc1; X1 = NCC(=O)Nc1cc(CC[C@H](N[*:1])C(=O)[*:2])ccc1O; X2 = NC(N)=N[C@H]1CC(C(=O)[*:2])N([*:1])C1; Hyp = O=C(O)[C@@H]1C[C@@H](O)CN1; Orn = NCCC[C@H](N)C(=O)O
observationType: clearance (mL/min/kg)

1. CCCCCOc1ccc(-c2ccc(-c3ccc(C(=O)N[C@H]4CCCNC(=O)C5C[C@H](N=C(N)N)CN5C(=O)[C@H]([C@@H](C)O)NC(=O)[C@H](CCc5ccc(O)c(NC(=O)CN)c5)NC(=O)[C@@H]5C[C@@H](O)CN5C(=O)[C@H]([C@@H](C)O)NC4=O)cc3)cc2)cc1 (stereo partly specified) ({pTerphenylCO(4''-OnC5H11)}-[Orn]T[Hyp][X1]T[X2]; lactam 1-C) ... 2.33
